# procedure-summary: Drug concentration in C57BL/6 mouse brain at 10 mg/kg, po measured after 8 hrs
# Assay type: ADME, organism-based
# condition-details: read-out: Ct
metric-name: concentration at 8 h (nM)
One number for each entry, in nM.

`C[C@@H]1COCCN1c1cc(N2CCOC[C@@H]2C)nc2[nH]c(-c3cscn3)nc12` yielded concentration at 8 h of 230

====

# procedure-summary: Drug concentration in C57BL/6 mouse brain at 30 mg/kg, po measured after 1 hr
# Type: ADME, organism-based
# condition-details: read-out: Ct
Give concentration at 1 h for every item shown.
Answers are plain numbers, in µM.

substance_smiles=C[C@@H]1COCCN1c1cc(N2CCOC[C@@H]2C)nc2[nH]c(-c3ccccn3)nc12 value_observed=4.05

`C[C@@H]1COCCN1c1cc(N2CCOC[C@@H]2C)nc2[nH]c(-c3cscn3)nc12` yielded concentration at 1 h of 13.1

====

# procedure-summary: Drug concentration in C57BL/6 mouse plasma at 1 mg/kg, po measured after 24 hrs
# Type: ADME, organism-based
metric-name: concentration at 24 h (nM)
Answers are plain numbers, in nM.

`C[C@@H]1COCCN1c1cc(N2CCOC[C@@H]2C)nc2[nH]c(-c3cscn3)nc12` yielded concentration at 24 h of 4
